targetDesc: Replicase polyprotein 1ab (Severe acute respiratory syndrome coronavirus 2, UniProt P0DTD1)
Task for the reader: assign each of the following compounds its reported IC50.
Give bare numbers, in nM.

As a guide, the following entries are already answered.
CCOC(=O)/C=C/[C@H](C[C@@H]1CCNC1=O)NC(=O)[C@H](CC(C)C)NC(=O)[C@@H](NC(=O)OCc1ccccc1)C(C)C 286
CC(C)C[C@H](NC(=O)OCc1ccccc1)C(=O)N[C@@H](CC(C)C)C(=O)N[C@@H](C[C@@H]1CCNC1=O)C(=O)C(=O)NC(C)C 65

API: the following record is the query input.
Ask: // returns reported IC50 for input `O=C[C@H](C[C@@H]1CCNC1=O)NC(=O)[C@H](Cc1cccc(F)c1)NC(=O)c1cc2ccccc2[nH]1`
Reply: 23
